Molecular target: T1, human GIP receptor (human, UniProt P48546 22-466)
T1 sequence (looked up): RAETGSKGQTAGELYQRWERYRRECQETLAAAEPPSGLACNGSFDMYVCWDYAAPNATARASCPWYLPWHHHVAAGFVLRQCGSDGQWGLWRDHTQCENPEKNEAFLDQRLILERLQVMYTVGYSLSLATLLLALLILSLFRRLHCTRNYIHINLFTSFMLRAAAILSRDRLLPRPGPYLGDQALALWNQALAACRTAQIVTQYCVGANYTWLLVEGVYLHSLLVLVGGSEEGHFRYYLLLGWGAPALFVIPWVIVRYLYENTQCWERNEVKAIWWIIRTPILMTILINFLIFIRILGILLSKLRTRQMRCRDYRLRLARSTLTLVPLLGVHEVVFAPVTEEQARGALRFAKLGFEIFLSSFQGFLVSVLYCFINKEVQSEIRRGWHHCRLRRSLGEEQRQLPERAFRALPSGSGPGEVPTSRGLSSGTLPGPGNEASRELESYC
Assay: cell-based or functional assay
Ends that are not written are not given here.
Reported IC50 (inhibition of GIP(1-42) induced cAMP accumulation) is given for each of the following binders.
Reply with just the number (in nM).

Answered examples (6):
# binder, unit name, number
data = [
    ("GTFISDYSIAMDKIHQQDFVNWLLAQK-NH2 (also called human GIP(4-30)NH2; hGIP4-30) [GIP(4-30)NH2]", "nM", 108),
    ("DYSIAMDKIHQQDFVNWLLAQK-NH2 (also called human GIP(9-30)NH2; hGIP(9-30)) [GIP(9-30)NH2]", "nM", 450),
    ("TFISDYSIAMDKIHQQDFVNWLLAQK-NH2 (also called human GIP(5-30)NH2; hGIP5-30) [GIP(5-30)NH2]", "nM", 11.9),
    ("SDYSIAMDKIHQQDFVNWLLAQK-NH2 (also called human GIP(8-30)NH2; hGIP(8-30)) [GIP(8-30)NH2]", "nM", 133),
    ("FISDYSIAMDKIHQQDFVNWLLAQK-NH2 (also called human GIP(6-30)NH2; hGIP(6-30)) [GIP(6-30)NH2]", "nM", 342),
    ("AEGTFISDYSIAMDKIHQQDFVNWLLAQK-NH2 (also called human GIP(2-30)NH2; hGIP(2-30)) [GIP(2-30)NH2]", "nM", 21.7),
]

**Query** Supply reported IC50 (inhibition of GIP(1-42) induced cAMP accumulation) belonging to this binder: EGTFISDYSIAMDKIHQQDFVNWLLAQK-NH2 (also called human GIP(3-30)NH2; hGIP(3-30)NH2) [GIP(3-30)NH2]
**Result** 11.8
